system: human P-selectin-IgG; test: Binding of [3H]-cholesterol labeled sulfatide liposomes to human P-selectin-IgG; settings: liposomes carrying 22% of sulfatides, 2 hours at 4° C.
assay readout: inhibition of the binding of sulfatides to P-selectin

C D V E W V D V S C (CDVEWVDVSC) [A17] :: significantly inhibited
D V E W V D V S (DVEWVDVS) [A19] :: significantly inhibited
D V E W V D V A (DVEWVDVA) [A27] :: significantly inhibited
